// provenance: patent US10344025B2

measured.target: purified recombinant human GAC (GLS1) (Homo sapiens (Human))
Sequence (O94925 other isoform, or with tags, fused parts or gaps): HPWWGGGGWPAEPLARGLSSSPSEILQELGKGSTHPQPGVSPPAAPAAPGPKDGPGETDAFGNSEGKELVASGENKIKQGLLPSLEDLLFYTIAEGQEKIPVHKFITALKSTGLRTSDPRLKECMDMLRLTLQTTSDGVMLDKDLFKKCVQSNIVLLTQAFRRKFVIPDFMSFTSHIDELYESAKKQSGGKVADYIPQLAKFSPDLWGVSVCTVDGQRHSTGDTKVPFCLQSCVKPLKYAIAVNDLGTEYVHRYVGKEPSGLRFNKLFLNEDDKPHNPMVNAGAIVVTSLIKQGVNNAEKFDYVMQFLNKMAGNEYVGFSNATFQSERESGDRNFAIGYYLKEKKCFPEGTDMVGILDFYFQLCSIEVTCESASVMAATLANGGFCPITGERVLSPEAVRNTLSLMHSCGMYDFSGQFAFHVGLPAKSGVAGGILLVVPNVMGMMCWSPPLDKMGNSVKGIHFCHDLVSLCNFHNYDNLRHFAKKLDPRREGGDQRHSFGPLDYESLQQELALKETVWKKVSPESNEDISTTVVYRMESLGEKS
experiment: GLS1 Enzymatic Activity Assay (dual-coupled enzymatic assay, resorufin/Amplex UltraRed readout)
quantity.name: IC50

Examples from the recorded data:
[[record]]
compound = "Cc1ccc(CNC(=O)c2cn(CCCCn3cc(NC(=O)Cc4cccnc4)nn3)nn2)cn1"
observed_result = "100 to 500 nM"

[[record]]
compound = "CNC(=O)c1cn(CC(F)CCc2ccc(NC(=O)Cc3cc(OC4CCC4)ccn3)nn2)nn1 (stereo not shown) [Example 251, 2,2,2-trifluoroacetate]"
observed_result = "< 100 nM"

[[record]]
compound = "O=C(NCc1cccc(OC(F)(F)F)c1)c1cn(CC(F)CCc2nnc(NC(=O)C3CC3)s2)nn1 (stereo not shown)"
observed_result = "< 100 nM"


Ask: Need IC50 of `O=C(Cc1cccc(OC(F)(F)F)c1)Nc1nnc(CCCCn2cc(C(=O)NCc3cccc(OC(F)(F)F)c3)nn2)s1` , thanks.
Reply: < 100 nM

Ask: Same read-out for CNC(=O)c1cn(CC(F)CCc2nnc(NC(=O)Cc3cc(C4CCOCC4)ccn3)s2)nn1 (stereo not shown) ?
Reply: < 100 nM

Ask: Same read-out for O=C(NCc1ccc(C(F)(F)F)cn1)c1cn(CCC(F)Cn2cc(C(=O)NCc3cc(OC(F)(F)F)ccc3F)nn2)nn1 (stereo not shown) ?
Reply: < 100 nM

Ask: Same read-out for `O=C(CN1CCC(F)(F)CC1)Nc1cn(CCCCn2cc(C(=O)NCc3ccccn3)nn2)nn1` ?
Reply: 500 to 5000 nM

====

Measured IC50 accompanies every entry in the list below.
measured.target: purified recombinant human GAC (GLS1) (Homo sapiens (Human))
experiment: GLS1 Enzymatic Activity Assay (dual-coupled enzymatic assay, resorufin/Amplex UltraRed readout)

[[record]]
compound = "O=C(NCc1ccccn1)c1cn(CCCCc2nnc(C(=O)NCC3CC3)s2)nn1"
observed_result = "500 to 5000 nM"

[[record]]
compound = "O=C(Cc1cccc(OC(F)(F)F)c1)Nc1nnc(CCC(F)Cn2cc(C(=O)NCc3ccc(C(F)(F)F)cn3)nn2)s1 (stereo not shown)"
observed_result = "< 100 nM"

[[record]]
compound = "O=C(NCc1cccc(OC(F)(F)F)c1)c1cn(CCCCc2nnc(C(=O)NCCN3CCCC3)s2)nn1"
observed_result = "500 to 5000 nM"


Ask: Need IC50 of O=C(NCc1cccc(C(F)(F)F)n1)c1cn(CCC(F)Cn2cc(C(=O)NCc3cccc(OC(F)(F)F)c3)nn2)nn1 (stereo not shown) , thanks.
Reply: < 100 nM

====

measured.target: purified recombinant human GAC (GLS1) (Homo sapiens (Human))
experiment: GLS1 Enzymatic Activity Assay (dual-coupled enzymatic assay, resorufin/Amplex UltraRed readout);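 also: glutamate from GAC coupled via glutamate oxidase and peroxidase to resorufin, read as fluorescence (ex 530, em 590 nm) kinetically or at 20 min, four-parameter logistic IC50 fit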
pIC50: −log10 of the molar value.
quantity.name: pIC50

[[record]]
compound = "CC(=O)Nc1ccc(CCCCc2nnc(C(=O)NCc3cc(OC(F)(F)F)ccc3F)s2)nn1"
measured_target = "purified recombinant human GAC (GLS1) (Homo sapiens (Human))"
observed_result = "> 7.00"


Ask: Provide the documented pIC50 with purified recombinant human GAC (GLS1) (Homo sapiens (Human)) as the system for `O=C(Cc1cccc(OC(F)(F)F)c1)Nc1nnc(CCCCn2cc(C(=O)N[C@@H](CO)c3ccccc3)nn2)s1`
Reply: > 7.00

Ask: Same read-out for O=C(NCc1ccc(C(F)(F)F)nc1)c1cn(CCC(F)Cn2cc(C(=O)NCc3cccc(OC(F)(F)F)c3)nn2)nn1 (stereo not shown) ?
Reply: > 7.00

Ask: Same read-out for `O=C(Cc1ccccn1)Nc1cn(CCCCn2cc(C(=O)NCc3cccc(OC(F)(F)F)c3)nn2)nn1` ?
Reply: > 7.00

Ask: Same read-out for O=C(Cc1ccccn1)Nc1cn(CC(F)CCn2cc(C(=O)NCc3cc(C(F)(F)F)ccn3)nn2)nn1 (stereo not shown) ?
Reply: > 7.00

Ask: Same read-out for CNC(=O)c1cn(CC(F)CCc2ccc(NC(=O)CN3CCN(c4cccc(OC(F)(F)F)c4)CC3=O)nn2)nn1 (stereo not shown) ?
Reply: > 7.00

Ask: Same read-out for `CNC(=O)c1cn(CCCCn2cc(C(=O)NCc3cccc(OC(F)(F)F)c3)nn2)nn1` ?
Reply: 6.30 to 7.00

Ask: Same read-out for `CCOC(=O)NCc1cn(CCCCn2cc(C(=O)NCc3cccc(OC(F)(F)F)c3)nn2)nn1` ?
Reply: 6.30 to 7.00

Ask: Same read-out for O=C(Cc1ccccn1)Nc1cn(CC(F)CCn2cc(C(=O)NCc3cccc(OC(F)(F)F)c3)nn2)nn1 (stereo not shown) ?
Reply: > 7.00

Ask: Same read-out for O=C(Cc1ccccn1)Nc1cn(CC(F)CCn2cc(C(=O)NCc3ncccc3F)nn2)nn1 (stereo not shown) ?
Reply: 5.30 to 6.30

Ask: Same read-out for `O=C(Cc1ccccc1)Nc1nnc(CCCCn2cc(C(=O)NCCN3CCC(O)CC3)nn2)s1` ?
Reply: 5.30 to 6.30
